Hello, the source for this data is patent US20240327381A1, in case you need it.

- target desc: IKZF1 ZNF2_ZNF3 Q1F degron-tagged CD19 CAR (Homo sapiens, UniProt Q13422, Q146F)
- Construct: ZNF2_ZNF3 Q1F degron (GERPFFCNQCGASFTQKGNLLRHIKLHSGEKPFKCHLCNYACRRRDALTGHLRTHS); fused on or other part: anti-CD19 scFv, CD28 transmembrane domain, 4-1BB costimulatory domain, CD3 zeta signaling domain (the CAR that carries the degron), and Nluc
- Sequence (Q13422 whole entry Q146F, the tested form may be a part): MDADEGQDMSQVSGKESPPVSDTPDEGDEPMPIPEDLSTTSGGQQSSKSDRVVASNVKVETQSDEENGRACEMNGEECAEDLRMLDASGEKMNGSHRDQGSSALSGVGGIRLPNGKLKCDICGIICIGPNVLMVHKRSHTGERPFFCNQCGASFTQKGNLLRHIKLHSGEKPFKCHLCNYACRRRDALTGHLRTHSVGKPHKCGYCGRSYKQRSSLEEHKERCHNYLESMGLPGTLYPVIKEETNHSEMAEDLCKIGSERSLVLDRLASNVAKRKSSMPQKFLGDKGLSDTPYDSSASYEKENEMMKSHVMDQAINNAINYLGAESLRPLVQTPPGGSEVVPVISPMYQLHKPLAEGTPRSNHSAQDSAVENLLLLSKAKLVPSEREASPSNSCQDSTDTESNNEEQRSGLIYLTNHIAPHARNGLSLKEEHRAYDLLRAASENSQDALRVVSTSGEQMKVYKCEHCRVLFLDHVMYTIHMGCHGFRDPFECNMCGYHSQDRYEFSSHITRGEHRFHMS
- assay name: Degradation of Q1F degron-tagged CD19 CAR in Jurkat cells (flow cytometry of CAR levels)
- Format: cell-based
- condition details: Jurkat cells expressing CD19 CAR tagged with IKZF1 ZNF2_ZNF3 Q1F; 18 hours at 37° C.; CAR levels normalized to untreated cells; read-out: Q1F Jurkat IC50
test readout: DC50 (nM)
Respond numerically; units are nM and should not be typed.

Bench note: what DC50 did O=C1CCC(N2Cc3c(cc(F)c(C4CCN(CC5CCOC5)CC4)c3F)C2=O)C(=O)N1 (centres unmarked) show?
0.265

Bench note: what DC50 did O=C1CCC(N2Cc3c(cc(F)c(C4(O)CCN(Cc5cccc(C(F)(F)F)c5)CC4)c3F)C2=O)C(=O)N1 (centres unmarked) show?
6.42

Bench note: what DC50 did O=C1CCC(N2Cc3c(cc(F)c(C4(O)CCN(Cc5cc(F)c(C(F)(F)F)cc5F)CC4)c3F)C2=O)C(=O)N1 (centres unmarked) show?
40.2

Bench note: what DC50 did O=C1CCC(N2Cc3c(cc(F)c(C4(O)CCN(Cc5ccc6ccccc6n5)CC4)c3F)C2=O)C(=O)N1 (centres unmarked) show?
6.42

Bench note: what DC50 did O=C1CCC(N2Cc3c(cc(F)c(C4(O)CCN(Cc5ccc6cn[nH]c6c5)CC4)c3F)C2=O)C(=O)N1 (centres unmarked) show?
4.39

Bench note: what DC50 did COc1cccc(CN2CCC(O)(c3c(F)cc4c(c3F)CN(C3CCC(=O)NC3=O)C4=O)CC2)c1 (centres unmarked) show?
3.77

Bench note: what DC50 did Cc1ccc(CN2CCC(O)(c3c(F)cc4c(c3F)CN(C3CCC(=O)NC3=O)C4=O)CC2)cc1C (centres unmarked) show?
2.75

Bench note: what DC50 did Cc1cc(-c2c(F)cc3c(c2F)CN(C2CCC(=O)NC2=O)C3=O)nc(N)c1C (centres unmarked) show?
217

====

Would you kindly list Dmax for each of these compounds?
- target desc: IKZF1 ZNF2_ZNF3 Q1F degron-tagged CD19 CAR (Homo sapiens, UniProt Q13422, Q146F)
- Construct: ZNF2_ZNF3 Q1F degron (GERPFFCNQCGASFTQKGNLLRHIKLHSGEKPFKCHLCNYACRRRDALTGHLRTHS); fused on or other part: anti-CD19 scFv, CD28 transmembrane domain, 4-1BB costimulatory domain, CD3 zeta signaling domain (the CAR that carries the degron), and Nluc
- assay name: Degradation of Q1F degron-tagged CD19 CAR in Jurkat cells (flow cytometry of CAR levels)
- Format: cell-based
- condition details: Ymax is the % protein degraded; Jurkat cells expressing Q1F degron-tagged CD19 CAR; 18 hours; read-out: Q1F Jurkat-YMax

Which measured Dmax belongs to O=C1CCC(N2Cc3c(cc(F)c(C4CCN(Cc5ccc6[nH]ccc6c5)CC4)c3F)C2=O)C(=O)N1 (stereo not drawn) [Compound 61] , tested on IKZF1 ZNF2_ZNF3 Q1F degron-tagged CD19 CAR (Homo sapiens, UniProt Q13422, Q146F)?
93.4%

Which measured Dmax belongs to O=C1CCC(N2Cc3cc(C4CCN(Cc5ccc6scnc6c5)CC4)c(F)cc3C2=O)C(=O)N1 (stereo not drawn) [Compound 86] , tested on IKZF1 ZNF2_ZNF3 Q1F degron-tagged CD19 CAR (Homo sapiens, UniProt Q13422, Q146F)?
92.1%

Which measured Dmax belongs to CS(=O)(=O)NCCN1CCC(c2c(F)cc3c(c2F)CN(C2CCC(=O)NC2=O)C3=O)CC1 (stereo not drawn) [Compound 98] , tested on IKZF1 ZNF2_ZNF3 Q1F degron-tagged CD19 CAR (Homo sapiens, UniProt Q13422, Q146F)?
76.9%

Which measured Dmax belongs to Cc1ccc(CN2CCC(O)(c3c(F)cc4c(c3F)CN(C3CCC(=O)NC3=O)C4=O)CC2)cc1 (stereo not drawn) [Compound 27] , tested on IKZF1 ZNF2_ZNF3 Q1F degron-tagged CD19 CAR (Homo sapiens, UniProt Q13422, Q146F)?
76.2%

Which measured Dmax belongs to O=C1CCC(N2Cc3c(cc(F)c(C4CCN(CCO)CC4)c3F)C2=O)C(=O)N1 (stereo not drawn) [Compound 123] , tested on IKZF1 ZNF2_ZNF3 Q1F degron-tagged CD19 CAR (Homo sapiens, UniProt Q13422, Q146F)?
74.5%

Which measured Dmax belongs to CC1(C)Cc2cccc(CN3CCN(Cc4c(F)cc5c(c4F)CN(C4CCC(=O)NC4=O)C5=O)CC3)c2O1 (stereo not drawn) [Compound 75] , tested on IKZF1 ZNF2_ZNF3 Q1F degron-tagged CD19 CAR (Homo sapiens, UniProt Q13422, Q146F)?
89%

Which measured Dmax belongs to O=C1CCC(N2Cc3c(cc(F)c(C4CCN(Cc5ccc(C(F)(F)F)cc5)CC4)c3F)C2=O)C(=O)N1 (stereo not drawn) [Compound 52] , tested on IKZF1 ZNF2_ZNF3 Q1F degron-tagged CD19 CAR (Homo sapiens, UniProt Q13422, Q146F)?
91.8%

Which measured Dmax belongs to Cc1ccc(CN2CCC(c3c(F)cc4c(c3F)CN(C3CCC(=O)NC3=O)C4=O)CC2)cc1 (stereo not drawn) [Compound 45] , tested on IKZF1 ZNF2_ZNF3 Q1F degron-tagged CD19 CAR (Homo sapiens, UniProt Q13422, Q146F)?
90.6%

Which measured Dmax belongs to Cn1cncc1CN1CCC(c2c(F)cc3c(c2F)CN(C2CCC(=O)NC2=O)C3=O)CC1 (stereo not drawn) [Compound 1] , tested on IKZF1 ZNF2_ZNF3 Q1F degron-tagged CD19 CAR (Homo sapiens, UniProt Q13422, Q146F)?
85.3%

Which measured Dmax belongs to O=C1CCC(N2Cc3c(cc(F)c(C4CCN(CC5CCCCC5)CC4)c3F)C2=O)C(=O)N1 (stereo not drawn) [Compound 67] , tested on IKZF1 ZNF2_ZNF3 Q1F degron-tagged CD19 CAR (Homo sapiens, UniProt Q13422, Q146F)?
89%

Which measured Dmax belongs to O=C1CCC(N2Cc3c(cc(F)c(C4CCN(Cc5ccncc5)CC4)c3F)C2=O)C(=O)N1 (stereo not drawn) [Compound 117] , tested on IKZF1 ZNF2_ZNF3 Q1F degron-tagged CD19 CAR (Homo sapiens, UniProt Q13422, Q146F)?
86.1%

Which measured Dmax belongs to O=C1CCC(N2Cc3cc(C4CCN(Cc5ccc6ncsc6c5)CC4)c(F)cc3C2=O)C(=O)N1 (stereo not drawn) [Compound 81] , tested on IKZF1 ZNF2_ZNF3 Q1F degron-tagged CD19 CAR (Homo sapiens, UniProt Q13422, Q146F)?
93%

Which measured Dmax belongs to O=C1CCC(N2Cc3c(cc(F)c(C4CCN(Cc5ccnn5-c5ccccc5)CC4)c3F)C2=O)C(=O)N1 (stereo not drawn) [Compound 9] , tested on IKZF1 ZNF2_ZNF3 Q1F degron-tagged CD19 CAR (Homo sapiens, UniProt Q13422, Q146F)?
89.1%

Which measured Dmax belongs to Cc1cc(Br)cnc1C(=O)N1CCC(c2c(F)cc3c(c2F)CN(C2CCC(=O)NC2=O)C3=O)CC1 (stereo not drawn) [Compound 66] , tested on IKZF1 ZNF2_ZNF3 Q1F degron-tagged CD19 CAR (Homo sapiens, UniProt Q13422, Q146F)?
74.9%

Which measured Dmax belongs to O=C1CCC(N2Cc3c(cc(F)c(C4CCN(CCCOc5ccccc5)CC4)c3F)C2=O)C(=O)N1 (stereo not drawn) [Compound 118] , tested on IKZF1 ZNF2_ZNF3 Q1F degron-tagged CD19 CAR (Homo sapiens, UniProt Q13422, Q146F)?
83%

Which measured Dmax belongs to COc1cccc(CN2CCC(O)(c3c(F)cc4c(c3F)CN(C3CCC(=O)NC3=O)C4=O)CC2)n1 (stereo not drawn) [Compound 38] , tested on IKZF1 ZNF2_ZNF3 Q1F degron-tagged CD19 CAR (Homo sapiens, UniProt Q13422, Q146F)?
70.7%

Which measured Dmax belongs to O=C1CCC(N2Cc3c(cc(F)c(C4(O)CCN(Cc5ccccc5C(F)(F)F)CC4)c3F)C2=O)C(=O)N1 (stereo not drawn) [Compound 32] , tested on IKZF1 ZNF2_ZNF3 Q1F degron-tagged CD19 CAR (Homo sapiens, UniProt Q13422, Q146F)?
80.2%

Which measured Dmax belongs to O=C1CCC(N2Cc3c(cc(F)c(C4C[C@H]5CC[C@@H](C4)N5Cc4ccc(C(F)F)cc4)c3F)C2=O)C(=O)N1 (stereo partly drawn) [Compound 128] , tested on IKZF1 ZNF2_ZNF3 Q1F degron-tagged CD19 CAR (Homo sapiens, UniProt Q13422, Q146F)?
87.2%
